biological target: T1, Amyloid Beta (Aβ) 1-42 (human); assay: direct ELISA, fibril aBeta plate coat titrated, antibody held constant at 2 ug/ml; no unit in the table, x axis 'log ng/ml Abeta' [right panel]
T1 construct: The same peptide was used in several aggregation states: fibrils, a heterogeneous aggregate mixture, and soluble oligomers or aggregates; also called Aβ42; Aβ 42
T1 sequence (peptide, as listed by the source): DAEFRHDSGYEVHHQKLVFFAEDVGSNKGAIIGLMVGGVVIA
EXPERIMENTAL_ENDPOINT: IC50 (half-maximal fibril Abeta coating concentration at constant antibody) (ng/mL)

h2931 (antibody, V domains shown, Humanized IgG) VH: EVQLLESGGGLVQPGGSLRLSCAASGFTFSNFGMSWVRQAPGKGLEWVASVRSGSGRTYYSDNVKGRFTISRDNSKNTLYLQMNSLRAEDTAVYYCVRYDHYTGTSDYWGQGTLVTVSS VL: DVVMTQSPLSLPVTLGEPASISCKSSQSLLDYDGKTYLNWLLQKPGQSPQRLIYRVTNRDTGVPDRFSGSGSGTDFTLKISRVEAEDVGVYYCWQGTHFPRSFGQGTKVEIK
334
h2731 (antibody, V domains shown, Humanized IgG) VH: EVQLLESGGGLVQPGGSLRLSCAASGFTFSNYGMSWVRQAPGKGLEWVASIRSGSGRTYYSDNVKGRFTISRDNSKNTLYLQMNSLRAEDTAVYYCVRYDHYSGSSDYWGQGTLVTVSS VL: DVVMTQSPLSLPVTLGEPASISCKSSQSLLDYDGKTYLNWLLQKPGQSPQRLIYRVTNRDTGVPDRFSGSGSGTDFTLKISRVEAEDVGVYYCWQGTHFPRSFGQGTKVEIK
440
h2726 (antibody, V domains shown, Humanized IgG, detected with anti-human IgG) VH: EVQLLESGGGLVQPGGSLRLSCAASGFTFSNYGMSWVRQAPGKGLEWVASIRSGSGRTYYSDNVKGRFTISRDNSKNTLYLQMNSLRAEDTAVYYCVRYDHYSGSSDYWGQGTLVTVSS VL: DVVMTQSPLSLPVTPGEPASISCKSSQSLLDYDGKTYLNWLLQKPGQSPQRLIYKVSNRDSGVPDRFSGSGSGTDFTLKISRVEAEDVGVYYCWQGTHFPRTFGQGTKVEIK
387
h2831 (antibody, V domains shown, Humanized IgG) VH: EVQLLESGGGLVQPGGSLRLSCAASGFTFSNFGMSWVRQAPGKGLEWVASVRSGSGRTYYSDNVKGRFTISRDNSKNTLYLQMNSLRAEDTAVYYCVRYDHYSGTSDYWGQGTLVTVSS VL: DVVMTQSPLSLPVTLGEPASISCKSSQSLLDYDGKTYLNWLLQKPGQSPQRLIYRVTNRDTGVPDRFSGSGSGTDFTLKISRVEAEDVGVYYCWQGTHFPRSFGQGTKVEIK
412
